molecular target: full-length NS3/NS4A-2 (HCV NS3 protease) (Hepatitis C virus genotype 1a, UniProt P27958); construct: Recombinant E. coli or Baculovirus full-length NS3 was diluted to 3.33 μM with assay buffer; made in house; host or cells: E. coli or baculovirus (BV) expression system; assay: NS3-NS4 protease assay / NS3 inhibition assay (RETS1 substrate, fluorescence kinetic read); assay type: biochemical; details: recombinant E. coli or Baculovirus full-length NS3 with NS4A-2; read-out: NS3-NS4 IC50
Sequence (P27958 1027-1657): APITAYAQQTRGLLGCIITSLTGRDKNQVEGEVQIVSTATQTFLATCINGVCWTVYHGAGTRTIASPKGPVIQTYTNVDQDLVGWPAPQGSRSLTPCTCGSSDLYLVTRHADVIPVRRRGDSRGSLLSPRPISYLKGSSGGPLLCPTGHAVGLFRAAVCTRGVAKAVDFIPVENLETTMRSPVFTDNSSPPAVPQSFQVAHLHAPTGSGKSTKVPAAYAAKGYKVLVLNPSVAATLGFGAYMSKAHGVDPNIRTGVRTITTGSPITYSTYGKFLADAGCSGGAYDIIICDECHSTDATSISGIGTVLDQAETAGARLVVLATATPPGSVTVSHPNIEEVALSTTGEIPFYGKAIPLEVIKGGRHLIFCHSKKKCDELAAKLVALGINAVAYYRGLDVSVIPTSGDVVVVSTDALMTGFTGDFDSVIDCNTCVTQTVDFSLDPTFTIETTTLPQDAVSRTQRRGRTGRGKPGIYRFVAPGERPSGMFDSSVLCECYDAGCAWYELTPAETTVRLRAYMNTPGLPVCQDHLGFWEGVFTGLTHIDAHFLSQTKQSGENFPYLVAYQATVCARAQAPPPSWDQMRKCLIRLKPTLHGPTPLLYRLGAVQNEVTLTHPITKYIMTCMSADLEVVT
Listing of entries alongside the reported IC50.

- Molecule: "CC(C)(C)OC(=O)N[C@H]1CCCCC/C=C\\[C@@H]2C[C@@]2(C(=O)NS(=O)(=O)NCc2ccncc2)NC(=O)[C@@H]2CCCN2C1=O"
  IC50: "> 10 µM"
- Molecule: "CN(C)c1ccc(NS(=O)(=O)NC(=O)[C@@]23C[C@H]2/C=C\\CCCCC[C@H](NC(=O)OC(C)(C)C)C(=O)N2CCC[C@H]2C(=O)N3)cc1"
  IC50: "< 10 µM"
- Molecule: "CC(C)(C)OC(=O)N[C@H]1CCCCC/C=C\\[C@@H]2C[C@@]2(C(=O)NS(=O)(=O)c2cccc(C(F)(F)F)c2)NC(=O)[C@@H]2CCCN2C1=O"
  IC50: "< 10 µM"
- Molecule: "CC(C)(C)OC(=O)N[C@H]1CCCCC/C=C\\[C@@H]2C[C@@]2(C(=O)NS(=O)(=O)c2cc(Cl)ccc2F)NC(=O)[C@@H]2CCCN2C1=O"
  IC50: "< 10 µM"
- Molecule: "CC(C)(C)OC(=O)N[C@H]1CCCCC/C=C\\[C@@H]2C[C@@]2(C(=O)O)NC(=O)[C@@H]2C[C@@H](OC(=O)N3Cc4ccc(C(F)(F)F)cc4C3)CN2C1=O"
  IC50: "< 1 µM"
- Molecule: "CC(C)(C)OC(=O)N[C@H]1CCCC(F)(F)C/C=C\\[C@@H]2C[C@@]2(C(=O)NS(=O)(=O)C2CC2)NC(=O)[C@@H]2C[C@@H](OC(=O)N3Cc4cccc(F)c4C3)CN2C1=O"
  IC50: "< 0.1 µM"
- Molecule: "CCOC(=O)[C@@]12C[C@H]1/C=C\\CCCCC[C@H](NC(=O)OC1CCCC1)C(=O)N1C[C@H](OC(=O)N3Cc4ccc(OCCN5CCOCC5)cc4C3)C[C@H]1C(=O)N2"
  IC50: "< 10 µM"
- Molecule: "CC(C)(C)OC(=O)N[C@H]1CCCCC/C=C\\[C@@H]2C[C@@]2(C(=O)O)NC(=O)[C@@H]2C[C@@H](OC(=O)N3Cc4ccc(OCCNC5CC5)cc4C3)CN2C1=O"
  IC50: "< 0.1 µM"
- Molecule: "O=C(N[C@H]1CCCCC/C=C\\[C@@H]2C[C@@]2(C(=O)O)NC(=O)[C@@H]2CCCN2C1=O)C1CC1"
  IC50: "< 10 µM"
- Molecule: "O=C1N[C@]2(C(=O)NS(=O)(=O)C3CC3)C[C@H]2/C=C\\CCCCC[C@H](NC(=S)NC2CCCC2)C(=O)N2C[C@H](OC(=O)N3Cc4cccc(F)c4C3)C[C@@H]12"
  IC50: "< 0.1 µM"
- Molecule: "CS(=O)(=O)NC(=O)[C@@]12C[C@H]1/C=C\\CCCCC[C@H](NC(=O)OC1CCCC1)C(=O)N1Cc3ccc(Oc4cccc(Cl)c4)cc3CC1C(=O)N2 (some centres unmarked)"
  IC50: "< 10 µM"
